- assay.summary: Clearance in human liver microsomes in presence of NADPH
- Type: ADME, microsome
- test.parameters: read-out: CLH
outcome.measure: microsomal CLint (µL/min/mg)

Some entries whose results are on file:
compound	microsomal CLint [µL/min/mg]
COc1cc(C(=O)N2CCC(NC(=O)c3ccccc3OC(F)(F)F)c3c2cnn3C(C)C)cnc1OC (racemic)	15
COc1ccc(C(=O)N2CCC(NC(=O)c3ccccc3Cl)c3ccc(Cl)cc32)cc1OC (stereo unspecified)	132
COc1cc(C(=O)N2CC[C@H](NC(=O)c3ccccc3OC(F)(F)F)c3c2cnn3C(C)C)cnc1OC	6

[I] COc1ccc(C(=O)N2CCC(NC(=O)c3ccccc3Cl)c3c2cnn3C)cc1OC (racemic)
[II] COc1ccc(C(=O)N2CC[C@@H](NC(=O)c3ccccc3Cl)[C@@H](c3ccccc3)C2)cc1OC
Input: Hello, I am sorting some records. Could you say if I or II has the smaller microsomal CLint value? # answer = label of selected item
Output: I
(I: 6 µL/min/mg, II: 21 µL/min/mg)
